Exercise: state measured growth for each of the compounds provided.
System: OVCAR-3 ovarian
test_details: NCI-60 one-dose screen, 48 h (100 = growth as untreated, 0 = no growth, -100 = all killed)
condition_label: 10 µM unless noted
This is part of a sample that, as a whole, favours compounds with a hit. Of some 83,000 tested, about 20% had one in any assay.
Answers are plain numbers, in %.

>  <compound>
O=C(N/N=C/c1ccc(-c2cccc([N+](=O)[O-])c2)s1)c1[nH]c2ccc(Br)cc2c1-c1ccccc1

>  <assay_readout>
growth

>  <reported_value>
62.1

$$$$
>  <compound>
COc1cc(/C=C/C(=O)c2cnn(-c3cc(=O)[nH]c4ccc(C)cc34)c2C)cc(OC)c1OC

>  <assay_readout>
growth

>  <reported_value>
-50.1

$$$$
>  <compound>
O=C(NC(=S)N1CCN(c2ncnc3c2cnn3-c2ccccc2)CC1)c1ccc(Br)cc1

>  <assay_readout>
growth

>  <reported_value>
89.6

$$$$
>  <compound>
COc1ccc(NC(=O)CSc2nnc(-c3ccc(-c4nc5ccc(Cl)cc5[nH]4)cc3)o2)cc1

>  <assay_readout>
growth

>  <reported_value>
41

$$$$

Each compound below has a recorded value; state its growth.
1. O=C(CSc1nnc(-c2ccc(-c3nc4ccc(Cl)cc4[nH]3)cc2)o1)Nc1ccc(Br)cc1
2. Cc1cc(C)c2[nH]c(=O)c(C(c3nnnn3Cc3ccc4c(c3)OCO4)N3CCN(C)CC3)cc2c1 (stereo not drawn)
3. Cc1ccc2c(c1)/C(=C/C(=O)c1cc3ccccc3oc1=O)C(=O)N2
4. COc1sc(/C=N/NC(=O)c2[nH]c3ccc(Br)cc3c2-c2ccccc2)cc1Cl
5. O=c1[nH]c2ccccc2cc1CSc1ccccc1Nc1nccc(-c2ccc3c(c2)OCO3)n1
6. Cc1oc(-c2ccccc2)nc1CN[C@@H]1C[C@@H]2C[C@H]([C@H]1C)C2(C)C

1. 9.66
2. 122
3. -0.742
4. 4.74
5. 83.9
6. 84.4

Each compound below has a recorded value; state its growth.
1. O=C1/C(=C/c2cccc3c2OCO3)Cc2c(F)cc(Br)cc21
2. CN1CCN(CCS(=O)(=O)Nc2cc(-c3ccc4ncnc(Nc5ccc(F)c(Cl)c5)c4c3)cnc2Cl)CC1
3. Cc1nn(-c2ccccc2)c2nc(C)n(CC(=O)N/N=C/c3cccc([N+](=O)[O-])c3)c(=O)c12
4. O=C(c1ccc(Cl)cc1)C1[C@H](c2ccccc2Cl)[C@@H](c2ccccc2)NC12C(=O)Nc1ccccc12 (stereo partly drawn)
5. O=c1c(-c2nc(-c3ccccc3)c(-c3ccccc3)[nH]2)coc2ccc(F)cc12
6. Cc1ccc(N=Nc2c(N)nn3c(-c4cc5ccccc5oc4=O)ccnc23)cc1

[98.6, -31.7, 106, -15.5, 33.3, 37.4]

Each compound below has a recorded value; state its growth.
1. COc1ccc2oc(=O)c(-c3csc(N/N=C(\C)c4cc(OC)c(OC)c(OC)c4)n3)cc2c1
2. O=S(=O)(c1nc(-c2ccc(Br)cc2)oc1-c1ccc(Cl)cc1)N1CCCC(O)C1 (stereo not drawn)

110
63.1

====

Test system: SK-MEL-28 melanoma
test_details: NCI-60 one-dose screen, 48 h
condition_label: 10 µM unless noted
The panel holds about 83,000 compounds, 20% with a hit somewhere; the sample as a whole holds those more often. Calls of active or inactive are those of the source. Rule for the calls: active = growth percent below 10; inactive = the rest.
Hello, when you answer, please use one of the following outcomes: active, inactive

>  <molecule>
O=C(c1ccc(O)cc1)C1[C@H](c2ccc(Cl)cc2)[C@@H](c2ccccc2)NC12C(=O)Nc1ccc(Br)cc12 (some centres undefined)

>  <assigned_class>
active

$$$$
>  <molecule>
CC1=C(C)C(=O)C(NCCN2CCOCC2)=C(Br)C1=O

>  <assigned_class>
inactive

$$$$

Status in this test for C[C@@H](Nc1c(C#N)cnc2ccc(-c3cnc4[nH]ncc4c3)cc12)c1ccccc1 ? inactive

Same question, O=C1Nc2ccccc2/C1=C/C(=O)c1cc2ccccc2oc1=O this time inactive

Same question, COc1cc(/C=C/C(=O)c2cnn(-c3cc(=O)[nH]c4ccc(Cl)cc34)c2C)cc(OC)c1OC this time active

====

Test system: SK-OV-3 ovarian
test_details: NCI-60 one-dose screen, 48 h
condition_label: 10 µM unless noted
This is part of a sample that, as a whole, favours compounds with a hit. Of some 83,000 tested, about 20% had one in any assay. Calls of active or inactive are those of the source. The calls were made as follows: active = growth percent below 10; inactive = the rest.
Hello, when you answer, please use one of the following outcomes: YES for active, NO for inactive

Reference set, count: 4
>  <compound>
O=C(c1ccc(O)cc1)C1[C@H](c2ccccc2Br)[C@@H](c2ccccc2)NC12C(=O)Nc1ccccc12 (stereo not given in full)

>  <target_of_assay>
SK-OV-3 ovarian

>  <assigned_class>
NO

$$$$
>  <compound>
C=CC(=O)Nc1ccc(C(=O)/C=C/c2ccc(N(C)C)cc2)c(O)c1

>  <target_of_assay>
SK-OV-3 ovarian

>  <assigned_class>
NO

$$$$
>  <compound>
ClC(Cn1ncc2c(Nc3cccc(Br)c3)nc(SCCN3CCOCC3)nc21)c1ccc(Br)cc1 (stereo not given)

>  <target_of_assay>
SK-OV-3 ovarian

>  <assigned_class>
NO

$$$$
>  <compound>
Clc1ccc(Nc2nnc(-c3c[nH]c4ccccc34)o2)cc1

>  <target_of_assay>
SK-OV-3 ovarian

>  <assigned_class>
NO

$$$$

Continue with the next compound.
Status in this test for CCc1ccccc1-c1nc(CN[C@@H]2C[C@@H]3C[C@H]([C@H]2C)C3(C)C)c(C)o1 ? YES

====

System: OVCAR-4 ovarian
test_details: NCI-60 one-dose screen, 48 h
condition_label: 10 µM unless noted
About 83,000 compounds went through this panel and 20% of them were active in at least one assay; those are over-represented in the sample as a whole. Active and inactive are the calls of the source. How the source made its calls: active means growth percent below 10; inactive means the rest.
Hello, when you answer, please use one of the following outcomes: T = active, F = inactive

>  <molecule>
CC(=O)c1ccc2c(N)c(C(=O)Nc3ccc(C(F)(F)F)cc3)sc2n1

>  <assigned_class>
F

$$$$
>  <molecule>
COc1ccc2c(c1)C(=O)N(C)C2C1c2c(cc3c(c2OC)OCO3)CCN1C (centres undefined)

>  <assigned_class>
F

$$$$
>  <molecule>
O=C(Nc1ccc(-c2ccc3c(c2)NC(=O)/C3=C\c2ccc[nH]2)cc1)Nc1cccc(Cl)c1

>  <assigned_class>
T

$$$$

Status in this test for COc1ccc2[nH]c(=O)c(CSc3ccccc3Nc3nccc(-c4ccc(C(F)(F)F)cc4)n3)cc2c1 ? F

Same question, O=C1CC(c2ccc(I)cc2)OC2C=Cc3ccccc3C12 (centres undefined) this time F

Same question, Nc1nn2c(-c3cc4cc(Br)ccc4oc3=O)ccnc2c1N=Nc1ccc(S(N)(=O)=O)cc1 this time F

Same question, NS(=O)(=O)c1cccc(Nc2nc(SCC(=O)c3ccc(F)cc3)nc3ccccc23)c1 this time F

Same question, COc1ccc(Nc2nnc(-c3c[nH]c4ccccc34)o2)cc1 this time F

Same question, COc1cc(/C=C/C(=O)c2ccc(S(=O)(=O)NCCNc3nc(N(C)C)nc(N4CCOCC4)n3)cc2)cc(OC)c1OC this time T

====

Tested on: BT-549 breast
test_details: NCI-60 one-dose screen, 48 h (100 = growth as untreated, 0 = no growth, -100 = all killed)
condition_label: 10 µM unless noted
Compounds without any hit were thinned out: in the full panel of roughly 83,000, 20% have a hit.
assay_readout: growth (%)
Answers are plain numbers, in %.

Each compound below has a recorded value; state its growth.
1. N#CC1=C(c2cccs2)Nc2c(c(-c3ccccc3)nn2-c2ccccc2)C12C(=O)Nc1ccccc12 (stereo not drawn)
2. COc1ccc(C(=O)NNC(=O)CSc2nc3sc4c(c3c(=O)n2-c2ccc(Cl)cc2)CCCC4)cc1
3. COc1ccc(-c2cc(C(=O)OCc3ccc(Br)cc3)nn2-c2ccc(S(C)(=O)=O)cc2)cc1OC
4. O=C(CSc1nc2sc3c(c2c(=O)n1-c1ccc(Cl)cc1)CCCC3)NNC(=O)c1ccc(Br)cc1
5. CN(C)C(=O)c1cc(-c2ccc3ncnc(N4CCc5cc(F)c(Cl)cc54)c3c2)cnc1N

-41.8
34.5
74
74.5
-82.9

Each compound below has a recorded value; state its growth.
1. Clc1ccc(-c2nc3c4c(-c5ccccc5)c(-c5ccccc5)n(Cc5ccccc5)c4ncn3n2)cc1
2. COc1ccc(-c2nc3ccc(-c4nnc(SCC(=O)Nc5ccc(/C(C)=N\O)cc5)o4)cc3[nH]2)cc1

1. -28.4
2. -62.3

====

Test system: SN12C renal
test_details: NCI-60 one-dose screen, 48 h (100 = growth as untreated, 0 = no growth, -100 = all killed)
condition_label: 10 µM unless noted
This is part of a sample that, as a whole, favours compounds with a hit. Of some 83,000 tested, about 20% had one in any assay. Active and inactive are the calls of the source. The calls were made as follows: active = growth percent below 10; inactive = the rest.
assay_readout: growth

>  <compound>
COc1cc(/C=N/NC(=O)c2ccc(OCc3nc4ccc(Cl)cc4[nH]3)cc2)cc(OC)c1OC

>  <growth>
48.7% (inactive)

$$$$
>  <compound>
CCOc1ccccc1[C@H]1C(C(=O)c2ccc(Cl)cc2)C2(N[C@@H]1c1ccccc1)C(=O)Nc1ccc(Br)cc12 (some centres undefined)

>  <growth>
-86.6% (active)

$$$$
>  <compound>
c1ccc(CSc2nnc(-c3ccc4nc(-c5ccccc5)[nH]c4c3)o2)cc1

>  <growth>
-48.3% (active)

$$$$
>  <compound>
CCCCN1C(=O)/C(=C\C(=O)c2cc3ccccc3oc2=O)c2ccccc21

>  <growth>
56.2% (inactive)

$$$$

Each compound below has a recorded value; state its growth.
1. CCCCNC(=S)Nc1ccc(OCc2nc3ccc(Cl)cc3[nH]2)cc1
2. Clc1ccc(Nc2nnc(-c3c[nH]c4ccccc34)o2)cc1
3. COc1ccc(N=Nc2c(N)nn3c(-c4ccc5c(c4)C=S=C5)ccnc23)cc1
4. Nc1nn2c(-c3cc4cc(Br)ccc4oc3=O)ccnc2c1N=Nc1ccc(S(N)(=O)=O)cc1
5. Cc1ccc(C(C(=O)NC2CCCCC2)N(Cc2ccccc2Cl)C(=O)c2ccc(CN3CCOCC3)o2)o1 (centres undefined)
6. CCCCCCCCc1ccc(C(=O)Nc2ccc(C)c(OP(=O)(O)O)c2)cc1
7. COc1ccc(-c2cc(-c3ccccc3)c(C#N)c(=O)[nH]2)cc1S(N)(=O)=O
8. O=C(NN1C(=O)/C(=C/C=C/c2ccc([N+](=O)[O-])o2)SC1=S)c1ccc([N+](=O)[O-])cc1

1: 19.2% (inactive); 2: 53.6% (inactive); 3: 39% (inactive); 4: 74% (inactive); 5: 95% (inactive); 6: 95.1% (inactive); 7: 124% (inactive); 8: -99.9% (active)

Each compound below has a recorded value; state its growth.
1. CCOC(=O)/C(F)=C/C1CC1CCc1ccc(OCC)cc1 (centres undefined)
2. COc1cc(/C=C/C(=O)c2cnn(-c3cc(=O)[nH]c4ccc(Cl)cc34)c2C)cc(OC)c1OC
3. N#CC1=C(c2cccs2)Nc2c(c(-c3ccccc3)nn2-c2ccccc2)C12C(=O)Nc1ccccc12 (centres undefined)

1. 44.9% (inactive)
2. 0.0215% (active)
3. 55.3% (inactive)

Each compound below has a recorded value; state its growth.
1. COc1ccc2[nH]cc(-c3cc(N)n4nc(-c5c[nH]c6ccccc56)cc4n3)c2c1
2. N#CCc1nnc(NC(=O)c2ccc(-n3c(=O)[nH]c4ccccc4c3=O)cc2)s1
3. Clc1ccc(CNc2nc(SCCN3CCOCC3)nc3c2cnn3CC(Cl)c2ccc(Br)cc2)cc1 (centres undefined)
4. CC(C)(C)c1cc(-c2cc(-c3ccccc3)[nH]c(=O)c2C#N)cc(C(C)(C)C)c1
5. C=CCn1c(O)c(N=Nc2nc(-c3cc4ccccc4oc3=O)cs2)c2ccccc21
6. O=C(O)CC1S/C(=N/N=C/c2nc3ccccc3s2)NC1=O (centres undefined)
7. COc1ccc(/C=C/C(=O)c2ccc(OC)c(S(N)(=O)=O)c2)c(C(F)(F)F)c1

49.1% (inactive)
95.4% (inactive)
42.7% (inactive)
30.7% (inactive)
90.7% (inactive)
101% (inactive)
8.16% (active)

Each compound below has a recorded value; state its growth.
1. O=C(N=Nc1c(O)[nH]c2ccc(Br)cc12)c1ccc2nc(-c3ccc(Cl)cc3)[nH]c2c1
2. COc1ccc(N=Nc2c(N)nn3c(N)c(C#N)c(-c4ccc(C)cc4)nc23)cc1
3. COc1ccc(-c2cc(C)nc3[nH]c(=O)sc23)cc1
4. O=S(=O)(c1nc(-c2ccc(Br)cc2)oc1-c1ccc(Cl)cc1)N1CCCC(O)C1 (centres undefined)
5. COc1ccc2[nH]c(O)c(N=Nc3nc(-c4ccc(C#N)cc4)cs3)c2c1
6. O=C(NN1C(=O)/C(=C/C=C/c2ccc([N+](=O)[O-])o2)SC1=S)c1ccc(O)cc1
7. O=C(Cn1c(-c2ccccc2)nc2ccccc21)N=Nc1c(O)[nH]c2ccc(Br)cc12
8. COc1ccc2[nH]c(=O)c(CSc3ccccc3Nc3nccc(-c4ccc(C(F)(F)F)cc4)n3)cc2c1

1. -50.8% (active)
2. 57.7% (inactive)
3. 43.2% (inactive)
4. -59.5% (active)
5. 20.3% (inactive)
6. -97.5% (active)
7. 1.91% (active)
8. -30.8% (active)

Each compound below has a recorded value; state its growth.
1. CS(=O)(=O)Nc1cccc(-n2cnc3cc(-c4ccc(O)cc4)ccc32)c1
2. CCOC(=O)/C(F)=C/C1CC1C(c1ccccc1)c1ccccc1 (centres undefined)
3. O=C(Nc1ccc(F)cc1)Nc1nc2ccc([N+](=O)[O-])cc2s1
4. O=C(NNC(=S)NCCc1ccccc1)c1ccc(OCc2nc3ccc(Cl)cc3[nH]2)cc1
5. O=c1[nH]c2ccccc2cc1COc1ccc(Nc2nccc(-c3ccc(Cl)cc3)n2)cc1
6. Cc1nc2sccn2c1-c1nnc(SCC(C)C)o1

41.1% (inactive)
98.8% (inactive)
-0.399% (active)
73.1% (inactive)
100% (inactive)
88.4% (inactive)

Each compound below has a recorded value; state its growth.
1. COc1c(F)ccc(C(=O)Nc2ccc3nc(NC(=O)C4CCCN(S(=O)(=O)c5ccc(C(C)(C)C)cc5)C4)sc3c2)c1F (centres undefined)
2. Cc1nc(Nc2ccccn2)sc1C1=NNC(c2ccccc2F)C1 (centres undefined)
3. COc1ccc2[nH]c(O)c(N=NC(=O)c3ccc4nc(-c5ccc(Cl)cc5)[nH]c4c3)c2c1

1: 57% (inactive); 2: 57.9% (inactive); 3: 70.7% (inactive)
